molecular target: KRAS (Homo sapiens, UniProt P01116); construct: endogenous in cells; host or cells: KE39 (KRAS amplified) cells; assay: KRASamp MSD assay; type: cell-based; conditions: KE39 (KRAS amplified) cells, treated with test compounds for 24 hr, MSD readout of KRAS degradation
Sequence (P01116 1-188 isoform P01116-2): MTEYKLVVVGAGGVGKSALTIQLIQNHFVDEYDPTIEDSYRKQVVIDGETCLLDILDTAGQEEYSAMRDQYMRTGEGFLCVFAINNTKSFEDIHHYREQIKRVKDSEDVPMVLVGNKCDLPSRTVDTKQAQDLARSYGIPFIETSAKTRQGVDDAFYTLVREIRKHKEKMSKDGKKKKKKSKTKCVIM
READOUT_LABEL: DC50

compound CCc1c(F)ccc2cc(O)cc(-c3ncc4c(N5CCC[C@@](C)(O)C5)nc(OC[C@]56CCCN5[C@H](COC(=O)N5CCC(COc7ccc8c(c7)n(C)c(=O)n8C7CCC(=O)NC7=O)CC5)CC6)nc4c3F)c12 (some centres unmarked) , DC50 observed: < 1 nM

The record that follows has no DC50 shown yet.
compound C#Cc1c(F)ccc2cc(O)cc(-c3ncc4c(N5CCC[C@@](C)(O)C5)nc(OC[C@@]56CCCN5[C@H](COC(=O)N5CC7(CC(CN8CCC(c9ccc%10c(c9)n(C)c(=O)n%10C9CCC(=O)NC9=O)CC8)C7)C5)CC6)nc4c3F)c12 (some centres unmarked) , DC50 observed: 1 to 10 nM
